Where do the numbers come from? From PubChem BioAssay (NCI).

System: SR leukemia
protocol text: NCI-60 one-dose screen, 48 h (100 = growth as untreated, 0 = no growth, -100 = all killed)
cond: 10 µM unless noted
Compounds without any hit were thinned out: in the full panel of roughly 83,000, 20% have a hit. The source made the active and inactive calls. How the source made its calls: active means growth percent below 10; inactive means the rest.
readout label: growth

Previously resolved entries follow.
COc1ccc(C2CC(c3ccc(OC)cc3OC)=NN2c2ccc(S(N)(=O)=O)cc2)cc1 (stereo not given) : 70.2% (inactive)
COc1ccc(CCNC2=CC(=O)CCC2)cc1OC : 85.9% (inactive)
FC(F)(F)c1ccccc1-c1cn2c(ccc3ccccc32)n1 : 42.4% (inactive)
Cn1c2ccc(Br)cc2c2c3c(c4c5ccccc5[nH]c4c21)C(=O)N(O)C3=O : 0.179% (active)
CCCN=C1NC(=O)/C(=C/c2nc(-c3ccc(OC)cc3)n3ccccc23)S1 : 62.5% (inactive)
Cc1nc2ncccc2nc1Nc1ccc(S(=O)(=O)Nc2cncs2)cc1 : 102% (inactive)
Cc1ccc(S(=O)(=O)NCCNc2cc(-c3cn(C(C)(C)C)nc3-c3cccc(O)c3)ccn2)cc1 : 51.7% (inactive)
COc1ccc(C(=O)c2cc(OC)c3c(c2)OCO3)cc1O : 9.89% (active)
COC(=O)[C@]12CC[C@@H](C)[C@H](C)[C@@H]1C1=CC[C@@H]3[C@@]4(C)C(C=O)=C[C@@](C)(COC(=O)c5ccco5)[C@@H]4[C@H](O)C[C@@]3(C)[C@]1(C)CC2 : 0.404% (active)
C=CCSc1n[nH]c(-c2cccs2)n1 : 91% (inactive)

The compound listed as Cc1ccc(/C=C2\CN(C(=O)CCN3CCC(=NO)CC3)C/C(=C\c3ccc(C)cc3)C2=O)cc1 has a reported growth of -0.19% (active)

Looking up Cc1[nH]c2ccc(F)cc2c1CCNC(=O)C1CCN(C(=O)c2ccccc2)CC1 , I see its growth listed as 97.3% [25 µM] (inactive)

The recorded growth for entry CCCCCCCCCCCCNC(=O)[C@H]1CSC(c2ccsc2)N1 (stereo not given in full) equals -44% (active)

Reported growth for COc1cc(C(=O)/C=C/c2ccc3nc(-c4cc(F)cc(F)c4)sc3c2)cc(OC)c1OC was 103% (inactive)

Documented growth of COc1ccc(-c2cnnn2-c2nonc2-n2cccc2)cc1OC : -4.66% (active)

Quick note, growth for CN(C)CCN1C(=O)c2ccc3c4c(ccc(c24)C1=O)C(=O)N(CCN=C=S)C3=O landed at -39.7% (active)

Quick note, growth for O=C(Oc1ccccc1[N+](=O)[O-])C1CCCN1C(=O)OCc1ccccc1 (stereo not given) landed at 82.4% (inactive)

Per the record, CC(C)(C)NCCC(O)c1cc2c(Cl)cc(Cl)cc2c2cc(C(F)(F)F)ccc12 (stereo not given) has growth of -77.5% (active)

Memo: CN(C)c1ncnc2c1ccn2C1OC(CO)C(O)C1O (stereo not given) , reported growth: 89.5% (inactive)

Looking up COc1ccc(S(=O)(=O)NCCCNc2nccc(-c3c(-c4cccc([N+](=O)[O-])c4)nc4sccn34)n2)cc1 , I found its growth recorded as 53.5% (inactive)

Field growth (entry C=C1CCC2C3(C)COC(C)(C)OC3CCC2(C)C1C/C=C1/C(=O)OCC1Oc1ccccc1OC (stereo not given) ) reads 28.9% (inactive)

---

Tested on: NCI-H522 lung
protocol text: NCI-60 one-dose screen, 48 h (100 = growth as untreated, 0 = no growth, -100 = all killed)
cond: 10 µM unless noted
Compounds without any hit were thinned out: in the full panel of roughly 83,000, 20% have a hit.
readout label: growth (%)
Your answer should be a plain number; it is taken to be in %.

Nc1cc2c(cc1C(=O)c1cccc(F)c1)OCCO2 : 87.3
COC(=O)[C@]12CC[C@@H](C)[C@H](C)[C@@H]1C1=CC[C@@H]3[C@@]4(C)C(C=O)=C[C@@](C)(COC(=O)c5ccco5)[C@@H]4[C@H](O)C[C@@]3(C)[C@]1(C)CC2 : -47.9
O=c1[nH]c(-c2ccccc2)nc(CN2CCCCC2)c1O : 116
COc1ccc(CN2CCc3c(Sc4ccccc4)nc(N)nc3C2=O)c(OC)c1 : 21.3

// molecule C=C(C)[C@@H]1CC[C@]2(C(=O)O)CC[C@]3(C)[C@H](CC[C@@H]4[C@@]5(C)C[C@@H](CC#Cc6ccc(C(F)(F)F)cc6)[C@H](O)C(C)(C)[C@@H]5CC[C@]43C)[C@@H]12 , assay NCI-H522 lung, growth value: -19.1

Per the reported NCI-H522 lung data, COc1ccc(-c2c(N)n[nH]c2-c2cc(OC)c(OC)c(OC)c2)cc1 has growth of -21.3

Hey, NCI-H522 lung data for CC(C)OC(=O)N1CCOCC1 : growth came out at 95.9

---

Test system: SK-MEL-28 melanoma
protocol text: NCI-60 one-dose screen, 48 h (100 = growth as untreated, 0 = no growth, -100 = all killed)
cond: 10 µM unless noted
The panel holds about 83,000 compounds, 20% with a hit somewhere; the sample as a whole holds those more often.
Form field: growth (one value per entry).
Answer with a number only, understood to be in %.

O=C(NNC(=S)Nc1ccccc1)c1cc2ccc1CCc1ccc(cc1)CC2 : 73.5
C/C(=C\c1ccc(OCC(=O)O)c(Cl)c1Cl)[N+](=O)[O-] : 118
CCOC(=O)/C(C#N)=C1/C(=O)Nc2ccccc21 : 115

# growth of COc1ccc(-c2cn(-c3cccc(C(=O)/C=C/c4cc(OC)c(OC)c(OC)c4)c3)c(=O)[nH]2)cc1OC = 98.9

// growth value for O=[N+]([O-])c1cccc(-c2nc3sccn3c2-c2ccnc(NCCCNS(=O)(=O)c3ccc(Cl)cc3)n2)c1 : 66

---

Test system: SW-620 colon
protocol text: NCI-60 one-dose screen, 48 h (100 = growth as untreated, 0 = no growth, -100 = all killed)
cond: 10 µM unless noted
The panel holds about 83,000 compounds, 20% with a hit somewhere; the sample as a whole holds those more often.
readout label: growth (%)
Respond numerically; units are % and should not be typed.

See these solved cases before continuing.
Oc1ccc(Cl)cc1-c1cc(-c2ccc(F)cc2)n[nH]1 : 75.5
CCCCN(CCCC)c1ccc(C(=N)c2ccc(N(CCCC)CCCC)cc2)cc1 : -84
O=[N+]([O-])c1cnc(Sc2ccncn2)s1 : -80.9
O=S(=O)(c1ccc(OCCO)cc1)c1ccc(OCCO)cc1 : 94.6
COc1cc([N+](=O)[O-])c2ncccc2c1O : 58.6

Documented growth of CCCCOc1ccc(/C=C2/SC(N3CCCC3)=NC2=O)cc1 : 99.9

# growth of COc1ccc(-c2ccc(C)n2-c2ccc(-c3nc4ccccc4s3)cc2)cc1 = 89.6

growth in this record for Cc1nn(-c2ccc(Cl)cc2)c2ncnc(N/N=C/c3cccc([N+](=O)[O-])c3)c12 : 88.9

---

System: MALME-3M melanoma
protocol text: NCI-60 one-dose screen, 48 h (100 = growth as untreated, 0 = no growth, -100 = all killed)
cond: 10 µM unless noted
This is part of a sample that, as a whole, favours compounds with a hit. Of some 83,000 tested, about 20% had one in any assay.
Decision: growth >= 90% yields 1, all other cases yield 0.

Worked examples follow.
COC(=O)[C@]12CC[C@@H](C)[C@H](C)[C@@H]1C1=CC[C@@H]3[C@@]4(C)C(C=O)=C[C@@](C)(COC(=O)c5ccco5)[C@@H]4[C@H](O)C[C@@]3(C)[C@]1(C)CC2 : 0
CN1CCN(Cc2ccc(NC(=O)c3cncc(C#Cc4cnc(N)c5ccncc45)c3)cc2C(F)(F)F)CC1 : 0
O=C1C2(c3ccccc3)C(c3ccccc3)=C(c3ccccc3)C1(c1ccccc1)C1CC=CC12 (stereo unspecified) : 0
CC(C)OC(=O)N1CCOCC1 : 1
CCC1=CCC[C@@]2(C)CCC[C@@]3(C)CCCC(C)(C)[C@]1([O-])[O+]32 : 1
COC(=O)c1cccc2c1N(C)c1c(cccc1C(=O)OC)CC2 : 1

Q) Check this compound for growth at or above 90%: N=c1ccc2nc3ccc(N)cc3sc-2c1
A) 0

Q) I'd appreciate it if you could say whether COc1ccc(S(=O)(=O)NCCCNc2nccc(-c3c(-c4cccc([N+](=O)[O-])c4)nc4sccn34)n2)cc1 has growth at least equal to 90%.
A) 0

Q) Item COc1ccc(/C=C(\C#N)c2cc(OC)c3c(c2)OCO3)cc1 with growth of 90% or above?
A) 0

Q) Does the reported growth for Fc1ccc(Nc2ncnc3ccc(-c4cnc5[nH]ccc5c4)cc23)cc1Cl fall at or above the 90% mark?
A) 0

Q) Dear colleague, could you confirm whether CCOC(=O)c1ccc2c(c1)nc(-c1ccc(OCc3ccccc3)c(OC)c1)n2-c1cc(C(C)(C)C)[nH]n1 has growth at or above 90%?
A) 1

Q) Is growth for Cc1ccc(-c2csc(NC(=O)CCCCl)n2)cc1 at or above 90%?
A) 1

Q) Quick check: does CC(C)(C)OC(=O)NCCc1ccc(N=C=S)cc1 have growth greater than or equal to 90%?
A) 0

Q) Does growth meet or surpass 90% for CCCCOc1ccc(/C=C2/SC(N3CCOCC3)=NC2=O)cc1OCC ?
A) 1

Q) Exam item: decide whether the reported growth for Clc1cc2c(nn1)Nc1ccccc1S2 is at least 90%.
A) 1
